FYI, the data here is from patent US20240270821A1.

assay target: hGIPR (Homo sapiens, UniProt P48546)
Sequence (P48546 22-466): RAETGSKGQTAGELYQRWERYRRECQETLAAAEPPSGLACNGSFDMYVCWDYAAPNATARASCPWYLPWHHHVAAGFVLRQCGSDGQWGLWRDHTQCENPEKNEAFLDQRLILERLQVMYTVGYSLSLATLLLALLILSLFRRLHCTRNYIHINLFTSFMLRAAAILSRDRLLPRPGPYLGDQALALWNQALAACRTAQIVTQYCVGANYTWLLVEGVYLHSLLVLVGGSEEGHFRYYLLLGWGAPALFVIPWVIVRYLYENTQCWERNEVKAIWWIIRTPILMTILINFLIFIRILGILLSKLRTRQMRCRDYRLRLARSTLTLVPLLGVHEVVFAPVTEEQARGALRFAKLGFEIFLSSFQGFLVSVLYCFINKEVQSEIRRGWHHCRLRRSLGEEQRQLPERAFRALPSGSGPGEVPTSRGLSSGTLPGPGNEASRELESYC
assay remarks: Functional cAMP activity in the presence of 1% HSA
Format: cell-based
condition context: read-out: cAMP Rel EC50, hGIPR
Starred links: 1 amine or outer side, 2 acyl side, 3 side chain; linkers in the order of their positions; H or OH if unused. Non-standard residues stand in square brackets, D forms with d. Groups on a side chain read outwards from the residue. No end group written: not given here. *: point of attachment. C20 diacid = O=C(O)CCCCCCCCCCCCCCCCCCC(=O)*; C18 diacid = O=C(O)CCCCCCCCCCCCCCCCC(=O)*; αMePhe(2-F) = C[C@](N)(Cc1ccccc1F)C(=O)O; γGlu = O=C(O)[C@H](CCC(=O)[*:2])N[*:1]; αMe4Pal = C[C@](N)(Cc1ccncc1)C(=O)O; αMeY = C[C@](N)(Cc1ccc(O)cc1)C(=O)O; 4Pal = N[C@@H](Cc1ccncc1)C(=O)O; αMeL = CC(C)C[C@](C)(N)C(=O)O; αMeS = C[C@](N)(CO)C(=O)O; Orn = NCCC[C@H](N)C(=O)O; AEEA = NCCOCCOCC(=O)O; Aib = CC(C)(N)C(=O)O
Kindly supply the reported pEC50 values for the records listed here.
Scale explanation: pEC50 corresponds to minus log10 of a concentration expressed in moles per litre.

What measured pEC50 goes with H-Y[Aib]QGT[αMePhe(2-F)]TSD[4Pal]SI[αMeL]LDKK([γGlu-γGlu-C18 diacid])AQ[Aib]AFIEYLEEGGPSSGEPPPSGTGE-NH2 [Example 624] ? 8.93

What measured pEC50 goes with H-Y[Aib]QGTFTSDFSK[αMeL]LDKK([AEEA-γGlu-C20 diacid])AQ[Aib]AFIEYLLAGGPSSGEPPPSEE-NH2 [Example 4] ? 7.21

What measured pEC50 goes with Y[Aib]QGT[αMePhe(2-F)]TSD[4Pal][αMeS]I[αMeL]LD[Orn]K([γGlu-γGlu-C18 diacid])AQ[αMe4Pal]EFI[dE][αMeY]LVEGGPSSGEPPPSGSEE-NH2 [Example 740] ? 9.20
